Sourced from patent US9096499B2

- Tested on: OCI MM cells
- assay-procedure: MTT cell growth and survival assay, OCI MM cells
- Format: cell-based
- test-context: 72 hours, MTT assay
property-measured: IC50

N#C/C(=C\c1ccc(O)c(O)c1)C(=O)NCc1ccccc1 [AG 490, reference compound]; > 12.5 µM

Quick one: give me IC50 for each item below, same order please.
1. N#C/C(=C\c1ccc([N+](=O)[O-])cc1)C(=O)NCc1ccccc1 [AG 1801]
2. C[C@@H](NC(=O)/C(C#N)=C/c1ccc([N+](=O)[O-])c(O)c1)c1ccccc1 [WP 1038]
3. C[C@H](NC(=O)/C(C#N)=C/c1ccc([N+](=O)[O-])cc1)c1ccccc1 [WP 1050]
4. C[C@H](NC(=O)/C(C#N)=C/c1ccc([N+](=O)[O-])c(O)c1)c1ccccc1 [WP 1051]
5. C[C@@H](NC(=O)/C(C#N)=C/c1ccc([N+](=O)[O-])cc1)c1ccccc1 [WP 1034]

Reply text:
1: 12 µM; 2: > 12.5 µM; 3: > 12.5 µM; 4: > 12.5 µM; 5: 6.3 µM
